- System: recombinant PCNA protein (Homo sapiens, UniProt P12004)
- Sequence (P12004 whole entry): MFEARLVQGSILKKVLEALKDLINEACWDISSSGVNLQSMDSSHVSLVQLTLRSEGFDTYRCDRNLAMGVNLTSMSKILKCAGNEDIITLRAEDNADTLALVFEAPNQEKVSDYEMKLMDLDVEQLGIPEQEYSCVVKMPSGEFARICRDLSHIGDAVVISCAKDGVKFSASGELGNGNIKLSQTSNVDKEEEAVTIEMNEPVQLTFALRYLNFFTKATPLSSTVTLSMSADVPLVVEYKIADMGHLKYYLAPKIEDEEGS
- Experimental Protocol: Fluorescence polarization competition assay (displacement of FITC-PL peptide from PCNA)
- Format: binding
- Parameters: (His)6 (N); TEV protease recognition site (N); made in house; host or cells: E. coli BL21(DE3)
- Particulars: incomplete competition model (four state), Roehrl et al., Eq. (7); read-out: Kd3
No end group written: not given here.
Assay Metric: Kd (µM)
One number for each entry, in µM.

Suppose we examine the substance RRQTSMTDFYHS-NH2 [p21] ; what Kd value has been reported?
3.1
